assay: Selectivity of compound for piGST to that of OvGST2

| molecule | qualifierSign | Selectivity |
| --- | --- | --- |
| CCCC(CC(C)=O)SCC(NC(=O)CCC(N)C(=O)O)C(=O)NCC(=O)O (stereo not given) | = | 1.3 |
| CCCCOC(=O)CC(SCC(NC(=O)CCC(N)C(=O)O)C(=O)NCC(=O)O)C(=O)O (stereo not given) | = | 0.8 |
| NC(CCC(=O)NC(CSC1CCCC(=O)C1)C(=O)NCC(=O)O)C(=O)O (stereo not given) | > | 1.1 |
| NC(CCC(=O)NC(CSC(CC(=O)O)C(=O)O)C(=O)NCC(=O)O)C(=O)O (stereo not given) | > | 13.9 |
| CC(C)C(=O)CC(SCC(NC(=O)CCC(N)C(=O)O)C(=O)NCC(=O)O)c1ccccc1 (stereo not given) | > | 7.8 |

----------
This document collects pIC50 values reported for Glutathione S-transferase P (Homo sapiens).
pIC50: −log10 of the molar value.

| compound | pIC50 |
| --- | --- |
| CC(=O)CC(SCC(NC(=O)CCC(N)C(=O)O)C(=O)NCC(=O)O)C(C)C (stereo unspecified) | < 3.60 |
| NC(CCC(=O)NC(CSC(CC(=O)O)C(=O)O)C(=O)NCC(=O)O)C(=O)O (stereo unspecified) | < 3.60 |
| CCCOC(=O)CC(SCC(NC(=O)CCC(N)C(=O)O)C(=O)NCC(=O)O)C(=O)OCCC (stereo unspecified) | < 3.60 |
| COC(=O)CC(SCC(NC(=O)CCC(N)C(=O)O)C(=O)NCC(=O)O)C(=O)OC (stereo unspecified) | 3.68 |
| NC(CCC(=O)NC(CSC1CCCC(=O)C1)C(=O)NCC(=O)O)C(=O)O (stereo unspecified) | < 3.60 |
| CCC(CC(C)=O)SCC(NC(=O)CCC(N)C(=O)O)C(=O)NCC(=O)O (stereo unspecified) | 5.28 |
